target.under.test: ACE (from rabbit lung) (Oryctolagus cuniculus, UniProt P12822)
Construct: ACE (from rabbit lung); purchased Sigma-Aldrich; host or cells: rabbit lung
Sequence (P12822 34-1310): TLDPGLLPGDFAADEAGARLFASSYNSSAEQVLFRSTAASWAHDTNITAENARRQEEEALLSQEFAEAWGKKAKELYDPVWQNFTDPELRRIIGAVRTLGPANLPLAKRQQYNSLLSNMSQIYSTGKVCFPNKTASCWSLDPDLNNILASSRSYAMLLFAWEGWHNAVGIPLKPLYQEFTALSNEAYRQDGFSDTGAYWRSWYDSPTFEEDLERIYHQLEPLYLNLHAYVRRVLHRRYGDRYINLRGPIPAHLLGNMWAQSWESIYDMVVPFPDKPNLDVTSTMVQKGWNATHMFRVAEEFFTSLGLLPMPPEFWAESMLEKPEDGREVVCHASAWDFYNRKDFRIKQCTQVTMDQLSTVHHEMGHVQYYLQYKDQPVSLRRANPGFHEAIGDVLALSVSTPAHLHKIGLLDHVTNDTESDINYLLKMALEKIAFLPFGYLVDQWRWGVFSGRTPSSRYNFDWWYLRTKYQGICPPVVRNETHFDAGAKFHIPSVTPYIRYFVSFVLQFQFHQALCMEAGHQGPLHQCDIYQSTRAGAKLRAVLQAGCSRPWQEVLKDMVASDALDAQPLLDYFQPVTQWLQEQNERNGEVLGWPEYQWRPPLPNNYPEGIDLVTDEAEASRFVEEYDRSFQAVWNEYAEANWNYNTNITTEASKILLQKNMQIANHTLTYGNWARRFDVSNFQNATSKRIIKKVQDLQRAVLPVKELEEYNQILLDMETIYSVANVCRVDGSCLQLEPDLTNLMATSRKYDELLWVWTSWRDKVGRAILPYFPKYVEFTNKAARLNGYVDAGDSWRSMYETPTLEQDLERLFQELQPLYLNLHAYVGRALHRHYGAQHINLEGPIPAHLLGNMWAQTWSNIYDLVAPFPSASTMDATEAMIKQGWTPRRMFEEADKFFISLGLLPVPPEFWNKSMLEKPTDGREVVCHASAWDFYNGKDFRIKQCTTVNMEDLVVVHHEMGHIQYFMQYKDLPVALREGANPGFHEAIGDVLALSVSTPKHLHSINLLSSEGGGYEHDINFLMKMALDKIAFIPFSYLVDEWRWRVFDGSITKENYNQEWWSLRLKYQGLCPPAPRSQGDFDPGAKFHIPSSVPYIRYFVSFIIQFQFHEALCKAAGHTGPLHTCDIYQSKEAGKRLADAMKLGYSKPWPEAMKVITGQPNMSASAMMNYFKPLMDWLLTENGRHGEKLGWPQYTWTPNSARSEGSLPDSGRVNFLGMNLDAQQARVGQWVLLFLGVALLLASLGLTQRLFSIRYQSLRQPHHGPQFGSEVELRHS
experiment.description: on-chip affinity screening, binding degree by LC-MS peak area vs protein-free control (ACE)
run.parameters: for ACE; [(As − Ac)/As] × 100, sample vs protein-free control, EIC peak area
Marks after values point to notes of the source that are not given here.
endpoint: Binding degree (%)

Any idea what its Binding degree (%) is? The compound is O=C(/C=C/c1ccc(O)c2c1[C@H](C(=O)O[C@H](Cc1ccc(O)c(O)c1)C(=O)O)[C@@H](c1ccc(O)c(O)c1)O2)O[C@H](Cc1ccc(O)c(O)c1)C(=O)O 41.3%

Next up: CC(C)(O)[C@@H]1CC[C@](C)([C@H]2[C@@H](O)C[C@@]3(C)[C@@H]4C[C@H](O[C@@H]5O[C@H](CO)[C@@H](O)[C@H](O)[C@H]5O)[C@H]5C(C)(C)[C@@H](O[C@@H]6OC[C@@H](O)[C@H](O)[C@H]6O)CC[C@@]56C[C@@]46CC[C@]23C)O1 [Astragaloside IV] 28.3^d %

Also need COc1ccc(-c2coc3cc(O)ccc3c2=O)cc1 , thanks. 53.8^d %

Also, O=C(O)C(O)Cc1ccc(O)c(O)c1 (stereo not drawn) please. 57.2%

// next record COc1ccc(-c2coc3cc(O)ccc3c2=O)cc1O 19.1^d %

Now the compound COc1ccc(-c2coc3cc(O[C@@H]4O[C@H](CO)[C@@H](O)[C@H](O)[C@H]4O)ccc3c2=O)cc1 52.6^d %
